- targetOfAssay: HLA-B*40:01
- assayMethodText: IEDB peptide-MHC binding, purified MHC/competitive/fluorescence; filed as Kd, often an IC50 or EC50 that approximates it; bounds were set here for any values at or beyond the usual limits of such assays
- studyConditions: source organism: Influenza A virus (A/swine/Italy/1509-6/97(H1N1))
measuredProperty: Kd (nM)

{"residues": "AEIEDLIFL", "targetOfAssay": "HLA-B*40:01", "measuredValue": 0.5}

----------
- targetOfAssay: HLA-A*02:11
- assayMethodText: IEDB peptide-MHC binding, purified MHC/direct/fluorescence; filed as Kd, often an IC50 or EC50 that approximates it; bounds were set here for any values at or beyond the usual limits of such assays
- studyConditions: source organism: Hantaanvirus CGRn93P8
pKd: −log10 of the molar value.
measuredProperty: pKd

{"residues": "QMISPVMSV", "measuredValue": "≥ 9.00"}
